protocol.details: Acute toxicity values [(LD50), mouse]
assay.context: in vivo, ip, Intraabdominal
Description: Acute toxicity values [(LD50), mouse] of some penicillin derivatives of this invention are illustrated in the following table.
LD50: recorded values

Example cases with answers are listed next.
# compound, LD50
records = [
    ("COc1cccc2cc(C(=O)N[C@@H](C(=O)N[C@@H]3C(=O)N4[C@@H]3SC(C)(C)[C@@H]4C(=O)O)c3ccccc3)c(=O)oc12 [Example 6]", "2000 mg/kg"),
    ("COc1cccc2cc(C(=O)N[C@@H](C(=O)N[C@@H]3C(=O)N4[C@@H]3SC(C)(C)[C@@H]4C(=O)O)c3ccc(O)cc3)c(=O)oc12 [Example 18]", "2000 mg/kg"),
]

Switching to the query record.
Req: Please give the measured LD50 for this compound: CC(=O)Oc1ccc2oc(=O)c(C(=O)N[C@@H](C(=O)N[C@@H]3C(=O)N4[C@@H]3SC(C)(C)[C@@H]4C(=O)O)c3ccccc3)cc2c1 [Example 9]
Resp: 2000 mg/kg

====

Consider molecules characterized by their MIC with Salmonella typhimurium G-20.

# molecule, endpoint, test.value
records = [
    ("CC1(C)S[C@@H]2[C@H](NC(=O)[C@H](N)c3ccccc3)C(=O)N2[C@H]1C(=O)O [Ampicillin, ampicillin, reference compound]", "MIC", "< 0.8 µg/mL"),
    ("Cc1ccc2oc(=O)c(C(=O)N[C@@H](C(=O)N[C@@H]3C(=O)N4[C@@H]3SC(C)(C)[C@@H]4C(=O)O)c3ccccc3)c(C)c2c1", "MIC", "< 0.4 µg/mL"),
]

Req: Notebook entry, Salmonella typhimurium G-20 assay: MIC of CC1(C)S[C@@H]2[C@H](NC(=O)[C@H](NC(=O)c3cc4ccc(O)cc4oc3=O)c3ccccc3)C(=O)N2[C@H]1C(=O)O = ?
Resp: < 0.4 µg/mL

====

System: Serratia G-18
protocol.details: Bactericidal test (MIC), Serratia G-18
Format: cell-based
assay.context: G18; (11) Serratia G-18; read-out: MIC
Known MIC of a selection of compounds
The response must be a number in µg/mL with no trailing unit.

Req: Field request: MIC | item: Cc1cccc2cc(C(=O)N[C@@H](C(=O)N[C@@H]3C(=O)N4[C@@H]3SC(C)(C)[C@@H]4C(=O)O)c3ccccc3)c(=O)oc12 [Example 15]
Resp: 200

Req: Fill in the blank: the reported MIC of CC1(C)S[C@@H]2[C@H](NC(=O)[C@H](N)c3ccccc3)C(=O)N2[C@H]1C(=O)O [Ampicillin, ampicillin, reference compound] is ____.
Resp: 25

====

Let's look at some compounds and their measured MIC.
Test system: Pseudomonas aeruginosa IFO-3080
protocol.details: Bactericidal test (MIC), Pseudomonas aeruginosa IFO-3080
Type: cell-based
assay.context: IFO3080; (12) Pseudomonas aeruginosa IFO-3080; read-out: MIC
Form entry: value (µg/mL) — number only.

# sample.smiles, MIC [µg/mL]
measured = [
    ("CC1(C)S[C@@H]2[C@H](NC(=O)[C@H](NC(=O)c3cc4cc(Br)cc(Br)c4oc3=O)c3ccccc3)C(=O)N2[C@H]1C(=O)O", 50),
]

Req: Reported MIC, compound COc1ccc2cc(C(=O)N[C@@H](C(=O)N[C@@H]3C(=O)N4[C@@H]3SC(C)(C)[C@@H]4C(=O)O)c3ccccc3)c(=O)oc2c1 : ____
Resp: 1.56

====

Test system: Serratia G-18
protocol.details: Bactericidal test (MIC), Serratia G-18
Format: cell-based
assay.context: G18; (11) Serratia G-18; read-out: MIC
A collection of compounds and their measured MIC
// units = µg/mL; emit number, no label

# compound, unit.label, MIC
data = [
    ("COc1ccc2oc(=O)c(C(=O)N[C@@H](C(=O)N[C@@H]3C(=O)N4[C@@H]3SC(C)(C)[C@@H]4C(=O)O)c3ccccc3)cc2c1 [Example 7]", "µg/mL", 12.5),
    ("CC(=O)Oc1ccc2oc(=O)c(C(=O)N[C@@H](C(=O)N[C@@H]3C(=O)N4[C@@H]3SC(C)(C)[C@@H]4C(=O)O)c3ccccc3)cc2c1 [Example 9]", "µg/mL", 25),
]

Req: I am curious: what MIC value has been reported for COc1cc(OC)c2cc(C(=O)N[C@@H](C(=O)N[C@@H]3C(=O)N4[C@@H]3SC(C)(C)[C@@H]4C(=O)O)c3ccccc3)c(=O)oc2c1 [Example 22] ?
Resp: 100

Req: Can you share its MIC? I mean this compound: CCOc1cccc2cc(C(=O)N[C@@H](C(=O)N[C@@H]3C(=O)N4[C@@H]3SC(C)(C)[C@@H]4C(=O)O)c3ccccc3)c(=O)oc12 [Example 19]
Resp: 12.5

====

protocol.details: Rates of protein fixation (human serum protein)
Type: in vitro ADME
assay.context: read-out: Rate of protein fixation (converted)
From the text: Rates of protein fixation (human serum protein) of the penicillin derivatives of this invention are illustrated as follows: […]
endpoint: fraction unbound

Req: // query fraction unbound value for entry COc1cccc2cc(C(=O)N[C@@H](C(=O)N[C@@H]3C(=O)N4[C@@H]3SC(C)(C)[C@@H]4C(=O)O)c3ccccc3)c(=O)oc12
Resp: 0.42

Req: Record request: fraction unbound value, item CC(=O)Oc1ccc2oc(=O)c(C(=O)N[C@@H](C(=O)N[C@@H]3C(=O)N4[C@@H]3SC(C)(C)[C@@H]4C(=O)O)c3ccccc3)cc2c1
Resp: 0.2

Req: I'd like to know its fraction unbound. The compound in question is CC1(C)S[C@@H]2[C@H](NC(=O)[C@H](NC(=O)c3cc4cc(Cl)ccc4oc3=O)c3ccccc3)C(=O)N2[C@H]1C(=O)O
Resp: 0.33

Req: GET /values?readout=fraction unbound&item= CC1(C)S[C@@H]2[C@H](NC(=O)[C@H](NC(=O)c3cc4cc(Br)ccc4oc3=O)c3ccccc3)C(=O)N2[C@H]1C(=O)O
Resp: 0.2

Req: Quick one: fraction unbound of CC1(C)S[C@@H]2[C@H](NC(=O)[C@H](NC(=O)c3cc4ccccc4oc3=O)c3ccc(O)cc3)C(=O)N2[C@H]1C(=O)O ?
Resp: 0.55

====

System: Serratia G-18
protocol.details: Bactericidal test (MIC), Serratia G-18
Assay type: cell-based
assay.context: G18; (11) Serratia G-18; read-out: MIC
endpoint: MIC (µg/mL)
Give your result in µg/mL as a bare value.

A selection of reference data follows.
# sample.smiles, unit.label, test.value
records = [
    ("CC1(C)S[C@@H]2[C@H](NC(=O)[C@H](NC(=O)c3cc4cc([N+](=O)[O-])ccc4oc3=O)c3ccccc3)C(=O)N2[C@H]1C(=O)O", "µg/mL", 50),
    ("CC(=O)Nc1ccc2oc(=O)c(C(=O)N[C@@H](C(=O)N[C@@H]3C(=O)N4[C@@H]3SC(C)(C)[C@@H]4C(=O)O)c3ccccc3)cc2c1", "µg/mL", 50),
    ("CC1(C)S[C@@H]2[C@H](NC(=O)[C@H](NC(=O)c3cc4ccccc4oc3=O)c3ccccc3)C(=O)N2[C@H]1C(=O)O", "µg/mL", 12.5),
    ("CC1(C)S[C@@H]2[C@H](NC(=O)[C@H](NC(=O)c3cc4cc(Br)cc(Br)c4oc3=O)c3ccccc3)C(=O)N2[C@H]1C(=O)O", "µg/mL", 100),
    ("COc1cccc2cc(C(=O)N[C@@H](C(=O)N[C@@H]3C(=O)N4[C@@H]3SC(C)(C)[C@@H]4C(=O)O)c3ccc(O)cc3)c(=O)oc12", "µg/mL", 6.25),
]

Shift focus to the following entry.
Req: // returns reported MIC for input CC(=O)Oc1ccc2oc(=O)c(C(=O)N[C@@H](C(=O)N[C@@H]3C(=O)N4[C@@H]3SC(C)(C)[C@@H]4C(=O)O)c3ccc(O)cc3)cc2c1
Resp: 50

====

Quick reference for MIC among some molecules
Test system: Pseudomonas aeruginosa GN-315
protocol.details: Bactericidal test (MIC), Pseudomonas aeruginosa GN-315
Format: cell-based
assay.context: GN315; (15) Pseudomonas aeruginosa GN-315
Excerpt: Results of bactericidal tests (MIC, r/ml) on the penicillin derivatives of this invention prepared in the above examples are shown in the following table.
Provide only the numeric value, understood in µg/mL.

The cases that follow already have their MIC on record.
# sample.smiles, target.entity, MIC [µg/mL]
records = [
    ("CC1(C)S[C@@H]2[C@H](NC(=O)[C@H](NC(=O)c3cc4ccccc4oc3=O)c3ccc(O)cc3)C(=O)N2[C@H]1C(=O)O", "Pseudomonas aeruginosa GN-315", 3.13),
    ("COc1cccc2oc(=O)c(C(=O)N[C@@H](C(=O)N[C@@H]3C(=O)N4[C@@H]3SC(C)(C)[C@@H]4C(=O)O)c3ccccc3)cc12", "Pseudomonas aeruginosa GN-315", 3.13),
]

Turning now to a further record.
Req: So what does the record say about MIC for CC(=O)Oc1cccc2cc(C(=O)N[C@@H](C(=O)N[C@@H]3C(=O)N4[C@@H]3SC(C)(C)[C@@H]4C(=O)O)c3ccccc3)c(=O)oc12 ?
Resp: 3.13
